Listed below: pIC50 values for each entry.
# ASSAY_SUMMARY: Cytotoxicity against human H460 cells
# Type: functional, cell-based
# REPORTED_CONDITIONS: NCI-H460
Answer as the number alone; pIC50 is minus log10 of concentration in mol/L.

Sample answers from the record:
>  <STRUCTURE_NOTATION>
CNC(=O)OCc1c(COC(=O)NC)c(-c2ccc(OC)cc2)n2c1Cc1ccccc1-2

>  <VALUE_MEASURED>
4.09

$$$$
>  <STRUCTURE_NOTATION>
CCNC(=O)OCc1c(COC(=O)NCC)c(-c2ccc(OC)cc2)n2c1Cc1ccccc1-2

>  <VALUE_MEASURED>
4.88

$$$$

Consider the additional compound presented here.
Prompt: State its pIC50 for this compound: `COc1ccc(-c2c(COC(=O)NC(C)C)c(COC(=O)NC(C)C)c3n2-c2ccccc2C3)cc1`
Response: 4.69
